FYI, the data here is from patent EP1660440B1.

- assayConditions: rat, s9, 1 h, 2 µM
property: % of Prodrug Remaining
Quote the value and follow it with the unit of measurement.

Would you please look over these solved cases?
Given the compound CC(OC(=O)NC[C@H](CC(=O)[O-])c1ccc(Cl)cc1)OC(=O)C(C)C.[Na+] (stereo partly drawn) , what is its reported % of Prodrug Remaining?
4%

Could you tell me which % of Prodrug Remaining is on file for O=C([O-])C[C@@H](CNC(=O)OCOC(=O)c1ccccc1)c1ccc(Cl)cc1.[Na+] ?
3%

Recorded % of Prodrug Remaining of CC(C)C(=O)O[C@H](OC(=O)NC[C@H](CC(=O)[O-])c1ccc(Cl)cc1)C(C)C.[Na+] , please.
3%

If you can, please state the reported % of Prodrug Remaining value of CC(C)CC(=O)OCOC(=O)NC[C@H](CC(=O)[O-])c1ccc(Cl)cc1.[Na+] .
2%

***
Reported % of Prodrug Remaining, compound CC(C)C(=O)OC(OC(=O)NC[C@H](CC(=O)[O-])c1ccc(Cl)cc1)C(C)C.[Na+] (stereo partly drawn) : ____
1%

Entry under review: CCOC(C)(OCC)C(=O)OCOC(=O)NC[C@H](CC(=O)[O-])c1ccc(Cl)cc1.[Na+] . Reported % of Prodrug Remaining?
2%

* * *

- assayConditions: aqueous buffer, 1 h, pH 7.4
property: % of Prodrug Remaining (%)
State just the number; it will be interpreted in %.

Completed entries (count: 3):
Return reported % of Prodrug Remaining; argument: CC(C)CC(=O)OCOC(=O)NC[C@H](CC(=O)[O-])c1ccc(Cl)cc1.[Na+] [(59)]
103

# get_value(readout='% of Prodrug Remaining', item= CC(C)C(=O)OC(OC(=O)NC[C@H](CC(=O)[O-])c1ccc(Cl)cc1)C1CCCCC1.[Na+] (stereo partly shown) [(84)] )
84

Value lookup for % of Prodrug Remaining; key = O=C([O-])C[C@@H](CNC(=O)OCOC(=O)c1ccccc1)c1ccc(Cl)cc1.[Na+] [(12)]
100

---
Find the recorded % of Prodrug Remaining belonging to CC(C)C(=O)O[C@H](C)OC(=O)NC[C@H](CC(=O)[O-])c1ccc(Cl)cc1.[Na+] [(34)] and report it.
100

Quick check: % of Prodrug Remaining of CC(C)C(=O)O[C@H](OC(=O)NC[C@H](CC(=O)[O-])c1ccc(Cl)cc1)C(C)C.[Na+] [(100)] ?
98

Recorded % of Prodrug Remaining of O=C([O-])C[C@@H](CNC(=O)OCOC(=O)c1cccs1)c1ccc(Cl)cc1.[Na+] [(57)] , please.
100

Query (compound): CC(C)(C)C(=O)OCOC(=O)NC[C@H](CC(=O)[O-])c1ccc(Cl)cc1.[Na+] [(20)] ; field requested: % of Prodrug Remaining
100

Entry CCCC(=O)OC(OC(=O)NC[C@H](CC(=O)[O-])c1ccc(Cl)cc1)C1CCCCC1.[Na+] (stereo partly shown) [(85)] has what % of Prodrug Remaining?
92

Which % of Prodrug Remaining value belongs to CC(=O)OCOC(=O)NC[C@H](CC(=O)[O-])c1ccc(Cl)cc1.[Na+] [(10)] ?
101

% of Prodrug Remaining lookup needed for CCC[C@H](OC(=O)NC[C@H](CC(=O)[O-])c1ccc(Cl)cc1)OC(=O)C(C)C.[Na+] [(91)] , thanks.
97

* * *

- procedureDetails: in vitro
- assayConditions: human, plasma, % of Baclofen Released
property: metabolised at 1 h, 2 µM (%)
Hi! Could you send only the number? It should be in %, unit omitted.

Could you share which metabolised at 1 h, 2 µM value was measured for CCCC(=O)O[C@H](CCC)OC(=O)NC[C@H](CC(=O)O)c1ccc(Cl)cc1 [(86)] ?
13

I would be grateful if you could share the reported metabolised at 1 h, 2 µM for CCCC(=O)OC(OC(=O)NC[C@H](CC(=O)O)c1ccc(Cl)cc1)C(C)C (stereo partly drawn) [(27)] .
12

From here, focus on the item given below.
Fill blank: measured metabolised at 1 h, 2 µM of the compound CC(C)C(OC(=O)NC[C@H](CC(=O)O)c1ccc(Cl)cc1)OC(=O)C(C)(C)C (stereo partly drawn) [(43)] is ____.
2

* * *

- procedureDetails: in vitro
- assayConditions: human, plasma
property: metabolised at 1 h, 2 µM (%)
Please respond with the number in % and leave the unit unwritten.

Recorded metabolised at 1 h, 2 µM, per entry:
Reported metabolised at 1 h, 2 µM, compound CC(C)C(=O)OCOC(=O)NC[C@H](CC(=O)O)c1ccc(Cl)cc1 [(18)] : ____
27

So what does the record say about metabolised at 1 h, 2 µM for CC(=O)OC(C)OC(=O)NC[C@H](CC(=O)O)c1ccc(Cl)cc1 (stereo partly drawn) [(30)] ?
8

Now for the compound whose metabolised at 1 h, 2 µM we want.
Which metabolised at 1 h, 2 µM reading was recorded for the compound CCCC(=O)OCOC(=O)NC[C@H](CC(=O)O)c1ccc(Cl)cc1 [(16)] ?
20

* * *

Parameter: Papp A→B at 200 µM. Scope: all listed entries.
- procedureDetails: in vitro
- assayConditions: human, Caco-2
The answer is to be given in ×10⁻⁶ cm/s; state only the numeric part.

Query: Papp A→B at 200 µM; subject: CCCC(=O)OCOC(=O)NC[C@H](CC(=O)O)c1ccc(Cl)cc1
6.1

Further cases:
# lookup: Papp A→B at 200 µM of CC(=O)OC(C)OC(=O)NC[C@H](CC(=O)O)c1ccc(Cl)cc1 (stereo partly drawn)
8.7

Record request: Papp A→B at 200 µM value, item CC(C)C(=O)OCOC(=O)NC[C@H](CC(=O)O)c1ccc(Cl)cc1
6.4

* * *

Below, each entry is listed alongside its reported % of Prodrug Remaining.
- assayConditions: human, s9, 1 h, 2 µM
Report the figure in % without appending any unit label.

Looking for the measured % of Prodrug Remaining of CCC[C@H](OC(=O)NC[C@H](CC(=O)[O-])c1ccc(Cl)cc1)OC(=O)C(C)C.[Na+] [(91)] , can you help?
1

Entry CC(C)C(=O)O[C@H](OC(=O)NC[C@H](CC(=O)[O-])c1ccc(Cl)cc1)C(C)C.[Na+] [(100)] has what % of Prodrug Remaining?
1

Would you mind telling me what % of Prodrug Remaining value was observed for CCOC(C)(OCC)C(=O)OCOC(=O)NC[C@H](CC(=O)[O-])c1ccc(Cl)cc1.[Na+] [(51)] ?
6

More entries:
Value lookup for % of Prodrug Remaining; key = CC(OC(=O)NC[C@H](CC(=O)[O-])c1ccc(Cl)cc1)OC(=O)C(C)C.[Na+] (stereo partly drawn) [(33)]
3

Bench note: what % of Prodrug Remaining did CC(C)C(=O)OC(OC(=O)NC[C@H](CC(=O)[O-])c1ccc(Cl)cc1)C(C)C.[Na+] (stereo partly drawn) [(25)] show?
4

What does the record list as % of Prodrug Remaining for CCCC(=O)OC(OC(=O)NC[C@H](CC(=O)[O-])c1ccc(Cl)cc1)C1CCCCC1.[Na+] (stereo partly drawn) [(85)] ?
2

* * *

- assayConditions: aqueous buffer, 1 h, pH 2
property: % of Prodrug Remaining (%)
State the answer as a number, implicitly in %.

These recorded examples may help you get a feel for the data.
Endpoint output: % of Prodrug Remaining of CC(=O)OC(OC(=O)NC[C@H](CC(=O)[O-])c1ccc(Cl)cc1)C(C)C.[Na+] (some centres unmarked) . Value?
107

Any idea what % of Prodrug Remaining was measured for O=C([O-])C[C@@H](CNC(=O)OCOC(=O)c1ccccc1)c1ccc(Cl)cc1.[Na+] ?
100

Endpoint output: % of Prodrug Remaining of CC(C)CC(=O)OCOC(=O)NC[C@H](CC(=O)[O-])c1ccc(Cl)cc1.[Na+] . Value?
103

Data request, read-out % of Prodrug Remaining, for O=C([O-])C[C@@H](CNC(=O)OCOC(=O)c1cccs1)c1ccc(Cl)cc1.[Na+]
100

Entry CCC[C@H](OC(=O)NC[C@H](CC(=O)[O-])c1ccc(Cl)cc1)OC(=O)C(C)C.[Na+] has what % of Prodrug Remaining?
100

New cases:
# lookup: % of Prodrug Remaining of CCOC(C)(OCC)C(=O)OCOC(=O)NC[C@H](CC(=O)[O-])c1ccc(Cl)cc1.[Na+]
100

Please report the recorded % of Prodrug Remaining for CC(=O)OCOC(=O)NC[C@H](CC(=O)[O-])c1ccc(Cl)cc1.[Na+] .
100

I am curious: what % of Prodrug Remaining value has been reported for CC(C)C(=O)OC(OC(=O)NC[C@H](CC(=O)[O-])c1ccc(Cl)cc1)C(C)C.[Na+] (some centres unmarked) ?
101

* * *

- procedureDetails: in vitro
- assayConditions: rat, liver s9
property: metabolised at 1 h, 2 µM

Reference set (2 entries):
Any idea what its metabolised at 1 h, 2 µM is? The compound is CC(C)C(OC(=O)NC[C@H](CC(=O)O)c1ccc(Cl)cc1)OC(=O)C(C)(C)C (stereo partly drawn)
97%

// lookup metabolised at 1 h, 2 µM for CCCC(=O)O[C@H](CCC)OC(=O)NC[C@H](CC(=O)O)c1ccc(Cl)cc1
92%

***
Tell me the measured metabolised at 1 h, 2 µM of CCCC(=O)OC(OC(=O)NC[C@H](CC(=O)O)c1ccc(Cl)cc1)C(C)C (stereo partly drawn) , please.
89%
